B1: library; numbered along this chain (parent)
chain: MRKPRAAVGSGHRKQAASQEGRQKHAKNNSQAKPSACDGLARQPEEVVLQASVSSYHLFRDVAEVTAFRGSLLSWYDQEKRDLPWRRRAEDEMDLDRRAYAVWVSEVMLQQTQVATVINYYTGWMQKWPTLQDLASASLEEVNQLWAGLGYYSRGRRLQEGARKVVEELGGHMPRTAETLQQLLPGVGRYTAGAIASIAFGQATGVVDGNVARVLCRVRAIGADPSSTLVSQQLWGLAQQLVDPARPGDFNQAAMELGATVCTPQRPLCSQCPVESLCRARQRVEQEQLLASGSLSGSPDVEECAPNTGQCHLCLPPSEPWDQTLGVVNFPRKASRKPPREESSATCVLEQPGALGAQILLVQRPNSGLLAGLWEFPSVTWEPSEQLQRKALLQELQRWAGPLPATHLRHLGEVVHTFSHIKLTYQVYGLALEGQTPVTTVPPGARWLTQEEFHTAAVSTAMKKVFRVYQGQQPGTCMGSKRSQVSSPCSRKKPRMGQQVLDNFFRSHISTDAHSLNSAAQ

Variants of: B1
Test: 8OG:A repair function score (normalized; synonymous = 0, nonsense = -1) (normalized log-likelihood score); higher = more repair activity (WT-like);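 further: cells sorted at 72 h after reporter transfection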
Settings: with 8OG:A DNA repair reporter (GFP) in HEK-293 MUTYH KO cells
Classify as follows. Reported 8OG:A repair function score greater than or equal to -0.3: True. Reported 8OG:A repair function score below: False.

The following variants have reported results that may help.
• P352L = True
• A6K = True
• L95D = True
• Q232V = True
• R482N = True
• K493C = True

Task: Please indicate if the recorded 8OG:A repair function score for R336F meets or exceeds -0.3.
Result: True

Task: Given the entry Q239C , answer whether its 8OG:A repair function score meets or surpasses -0.3.
Result: True

Task: Entry S54H : is its 8OG:A repair function score no less than -0.3?
Result: True
